FYI, the data here is from patent US20140322218A1.

Target: T1, Cyno Cadherin-19 (cynomolgus monkey (Macaca fascicularis), UniProt Q9H159 44-772 (human entry))
T1 construct: also called cyno CDH19; cynomologous CDH-19
T1 chain: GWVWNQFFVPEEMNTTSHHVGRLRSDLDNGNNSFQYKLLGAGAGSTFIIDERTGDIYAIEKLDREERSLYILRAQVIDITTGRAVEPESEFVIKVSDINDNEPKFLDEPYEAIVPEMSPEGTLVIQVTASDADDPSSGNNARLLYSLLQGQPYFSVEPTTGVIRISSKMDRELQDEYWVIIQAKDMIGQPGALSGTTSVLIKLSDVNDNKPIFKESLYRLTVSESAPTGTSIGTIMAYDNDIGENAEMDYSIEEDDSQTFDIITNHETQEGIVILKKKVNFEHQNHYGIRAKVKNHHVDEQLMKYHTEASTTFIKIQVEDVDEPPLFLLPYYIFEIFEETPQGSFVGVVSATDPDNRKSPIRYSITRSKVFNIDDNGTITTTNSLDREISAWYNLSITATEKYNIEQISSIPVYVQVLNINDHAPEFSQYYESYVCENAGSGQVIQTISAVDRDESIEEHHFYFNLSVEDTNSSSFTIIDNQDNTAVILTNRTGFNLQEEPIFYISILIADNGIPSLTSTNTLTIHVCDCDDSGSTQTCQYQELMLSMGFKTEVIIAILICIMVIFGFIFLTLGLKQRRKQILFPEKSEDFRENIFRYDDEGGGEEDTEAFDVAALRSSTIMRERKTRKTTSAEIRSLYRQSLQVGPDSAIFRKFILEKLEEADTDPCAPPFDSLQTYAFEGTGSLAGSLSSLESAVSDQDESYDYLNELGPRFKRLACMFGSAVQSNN
Test: FACS, recombinant cyno CDH19
measure: binding result

[[record]]
binder = "hu anti-<huCDH19> 22D1.1 VH::huIgG1z / 22D1.1 VL::huLLC-C2 (Ab ID 13879) (antibody, V domains shown) VH: QVQLVQSGAEVKKPGASVRVSCKVSGYTFTSYFIHWVRQAPGQGLEWMGIINPISVSTSYAQKFQGRVTMTRDTSTSTVFMELSSLRSEDTAVYYCARGGIQLWLHLDYWGQGTLVTVSS VL: QSALTQPPSATGTPGQRVTISCSGSSSNIGSNFVNWYKQLPGTAPKVLIYTNNQRPSGVPDRFSGSKSGTSASLAISGLQSEDESDYYCATWDDSMNGWVFGGGTKLTVLG"
result = "binds"

[[record]]
binder = "anti-CDH19 antibody 23A10 (Ab ID 13884) (antibody, human IgG1, lambda, V domains shown) VH: QVQLVESGGGVVQPGRSLRLSCAASGFTFSRYGIHWVRQAPGKGLEWVAVIWYDGSNKYYADSVKGRFTISRDNSKNTLYLLMNSLRAEDSAVYYCARRAGIPGTTGYYYGMDVWGQGTTVTVSS VL: SYELTQPPSVSVSPGQTASITCSGDRLGEKYVCWYQQKPGQSPILVIYQDNKWPSGIPERFSGSNSGNTATLTISGTQAMDEADYYCQAWDSSTVVFGGGTKLTVLG"
result = "binds"

